For each of the molecules below, state its max activity.
assay: inhibitors of Clostridioides difficile proliferation – 4-point retest, confirmation (AID 1224921); conditions: Clostridioides difficile clinical isolate growth, OD600, 24 h, stronger effect = lower value; at 30 µM unless noted;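 further: plate controls were DMSO wells for no effect and levofloxacin 16 µg/mL wells for full effect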
The campaign covered roughly 1,400 compounds. About 350 (25%) were called active. Roughly 2% stayed inconclusive and do not appear here. Only a sample is shown. Results with a measured potency or affinity are listed apart.

{"columns": ["Chemical smiles", "Assay endpoint", "Obs value"],
 "data": [
  ["CO[C@H]1CN(C)C(=O)c2ccc(NC(=O)Nc3ccccc3)cc2OC[C@H](C)NC[C@H]1C", "max activity", "-20.9% [at 8 µM] (inactive)"],
  ["C[C@@H]1CN([C@H](C)CO)C(=O)c2cccc(N(C)C)c2O[C@H]1CN(C)Cc1ccc(C(F)(F)F)cc1", "max activity", "26.1% (inactive)"],
  ["C[C@H]1CN([C@@H](C)CO)S(=O)(=O)c2ccc(C3=CCCC3)cc2O[C@@H]1CN(C)Cc1ccncc1", "max activity", "-16.8% [at 1.95 µM] (inactive)"],
  ["C[C@H](CO)N1C[C@H](C)[C@@H](CN(C)C(=O)NC2CCCCC2)Oc2c(NC(=O)Nc3ccc(F)cc3)cccc2C1=O", "max activity", "20.1% (inactive)"],
  ["COc1ccc(NC(=O)Nc2cccc3c2O[C@H](CN(C)C(=O)NC2CCCCC2)[C@@H](C)CN([C@H](C)CO)C3=O)cc1", "max activity", "-16% (inactive)"]
]}

Okay, here is my list. What is max activity for each of these?
1. C[C@@H]1CN([C@@H](C)CO)S(=O)(=O)c2ccc(C#CCC3CCCC3)cc2O[C@H]1CN(C)C(=O)CN(C)C
2. C[C@@H]1CN([C@H](C)CO)C(=O)c2c(c3ccccc3n2C)-c2ccccc2CO[C@H]1CN(C)C(=O)c1ccncc1

Solution:
1. -17.9% (inactive)
2. 18.8% (inactive)

====

assay: inhibitors of Clostridioides difficile proliferation – 4-point retest, confirmation (AID 1224921); conditions: Clostridioides difficile clinical isolate growth, OD600, 24 h, stronger effect = lower value; at 30 µM unless noted;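 further: plate controls were DMSO wells for no effect and levofloxacin 16 µg/mL wells for full effect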
Screen size: about 1,400 compounds; about 350 (25%) were called active. Inconclusive results (about 2%) are left out. These entries were drawn from the full list. Entries with a potency or affinity are not part of this list.
For each of the molecules below, state its max activity.

Look over these answered cases.
{"columns": ["Chemical smiles", "Obs value"],
 "data": [
  ["COCC(=O)Nc1ccc2c(c1)C(=O)N(C)C[C@@H](OC)[C@H](C)CN[C@H](C)CO2", "-10.3% [at 1.95 µM] (inactive)"],
  ["C[C@H]1CCCCO[C@@H](CN(C)CC2CCCCC2)[C@@H](C)CN([C@@H](C)CO)C(=O)c2cc(NC(=O)Nc3cccc4ccccc34)ccc2O1", "27.7% [at 8 µM] (inactive)"],
  ["C[C@@H]1CCCCO[C@H](CN(C)CC2CCCCC2)[C@@H](C)CN([C@H](C)CO)C(=O)c2cc(NC(=O)Nc3cccc4ccccc34)ccc2O1", "12.9% [at 8 µM] (inactive)"],
  ["O=C(C[C@@H]1C[C@@H]2c3cc(NC(=O)CC4CC4)ccc3O[C@@H]2[C@H](CO)O1)NCCc1ccccc1", "-14.8% (inactive)"],
  ["C[C@H]1CN([C@@H](C)CO)C(=O)c2cc(/C=C/c3ccccc3)cnc2O[C@@H]1CN(C)C(=O)CN(C)C", "-3.88% [at 0.5 µM] (inactive)"],
  ["CC(C)[C@H](C)NC(=O)N(C)C[C@@H]1OCc2ccccc2-c2ccccc2C(=O)N([C@H](C)CO)C[C@H]1C", "-14.1% [at 8 µM] (inactive)"],
  ["C[C@H](CO)N1C[C@H](C)[C@H](CN(C)S(=O)(=O)c2ccsc2)OCc2ccccc2-c2ccccc2C1=O", "-12.1% [at 0.5 µM] (inactive)"],
  ["O=C(C[C@@H]1C[C@H]2c3cc(NC(=O)Nc4ccc(C(F)(F)F)cc4)ccc3O[C@H]2[C@@H](CO)O1)NCc1ccc2c(c1)OCO2", "-23.2% [at 8 µM] (inactive)"]
]}

Okay, here is my list. What is max activity for each of these?
1. Cc1ccc(-c2ccc3c(c2)O[C@H](CN(C)Cc2cccnc2)[C@@H](C)CN([C@H](C)CO)S3(=O)=O)cc1
2. COc1ccc(CNC(=O)N(C)C[C@H]2OCc3ccccc3-c3c(n(C)c4ccccc34)C(=O)N([C@@H](C)CO)C[C@@H]2C)cc1
3. CO[C@H]1CN(C)C(=O)c2ccc(NS(=O)(=O)c3ccc(C)cc3)cc2OC[C@@H](C)N(C(=O)NC(C)C)C[C@H]1C
4. Cc1noc(C)c1NC(=O)N[C@@H]1CC[C@H](CC(=O)Nc2ccc(-c3ccccc3)cc2)O[C@H]1CO
5. COc1cccc(-c2ccc3c(c2)O[C@H](CN(C)Cc2ccncc2)[C@@H](C)CN([C@@H](C)CO)S3(=O)=O)c1
6. C[C@H](CO)N1C[C@H](C)[C@@H](CN(C)CC2CCCCC2)OCCCC[C@H](C)Oc2ccc(NC(=O)Nc3cccc4ccccc34)cc2C1=O
7. CCC(=O)Nc1ccc2c(c1)OC[C@@H](C)N(CC1CCCCC1)C[C@@H](C)[C@@H](OC)CN(C)C2=O

Solution:
["31.7% (inactive)", "30.4% (inactive)", "6.95% (inactive)", "26.4% (inactive)", "21.8% [at 35 µM] (inactive)", "21.6% (inactive)", "-9.08% [at 8 µM] (inactive)"]
